# Read-out: 3-Hydroxy-3-Methylglutaryl-CoA Synthase 2 (HMGCS2), HMGCS2 (gene 3158)
# ASSAY_NOTES: LTEA_HepaRG_HMGCS2: Life Technologies and Expression Analysis (LTEA) Assay for 3-Hydroxy-3-Methylglutaryl-CoA Synthase 2 (HMGCS2) using HepaRG (AID 2283504)
# RECORDED_CONDITIONS: mRNA level, 48 h; actives raise or lower the signal
Calls of active or inactive are those of the source. Rule for the calls: active = hit-call score of the fitted dose curve at least 0.9, where 1 is the maximum; inactive = score below 0.9.
Select the correct class. Options are active, inactive and nothing else.

INSERT INTO assay_data (compound, assigned_category) VALUES
  ('Cn1sc(Cl)cc1=O', 'inactive'),
  ('O=C(O)C(F)(F)C(F)(F)C(F)(F)C(F)(F)C(F)(F)C(F)(F)C(F)(F)C(F)(F)C(F)(F)C(F)(F)F', 'inactive'),
  ('CCC(=O)C(CC(C)N(C)C)(c1ccccc1)c1ccccc1 (stereo unspecified)', 'active'),
  ('CC(C)(C)CC(C)(C)c1ccc(O)cc1', 'inactive'),
  ('CC(C)(C)c1cc(O)ccc1O', 'inactive'),
  ('CCN1CCC2(CC1)COc1cc3c(cc12)N(C(=O)c1ccc(-c2ccc(-c4nnc(C)o4)cc2C)cc1)CC3', 'active'),
  ('CC(=O)[O][Hg][c]1ccccc1', 'active'),
  ('O=C1C2(Cl)C3(Cl)C4(Cl)C(Cl)(Cl)C5(Cl)C3(Cl)C1(Cl)C5(Cl)C24Cl (stereo unspecified)', 'active'),
  ('C[C@@H]1C[C@@H]([C@H](O)CC2CC(=O)NC(=O)C2)C(=O)[C@@H](C)C1', 'active'),
  ('CC(C)(c1ccccc1)c1ccc(O)c(C(C)(C)c2ccccc2)c1', 'active');

input: Answer briefly: the call reported for Oc1cccc2cccnc12 in this assay.
output: inactive

input: Answer briefly: the call reported for O=[N+]([O-])c1ccc(O)c([N+](=O)[O-])c1 in this assay.
output: active

input: Answer briefly: the call reported for CCC(C)(C)c1ccc(O)c(C(C)(C)CC)c1 in this assay.
output: inactive

input: Answer briefly: the call reported for C=CC(=O)OCCCCCC(C)C in this assay.
output: inactive

input: Answer briefly: the call reported for C[C@]12CCC(=O)C[C@@H]1CC[C@@H]1[C@@H]2CC[C@]2(C)[C@@H](O)CC[C@@H]12 in this assay.
output: inactive

input: Answer briefly: the call reported for O=C(O)C(Cl)(Cl)Cl in this assay.
output: inactive

----------
# ASSAY_NOTES: BSK_SAg_PBMCCytotoxicity: PBMC Cytotoxicity Assessment in the BioMAP Diversity Plus: SAg Assay (AID 2283093);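 note: PBMC viability measured as Alamar Blue reduction fluorescence at 546/580 nm; fitted both ways against DMSO so a hit may be loss or gain of signal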
# RECORDED_CONDITIONS: primary human HUVEC with PBMC
Active and inactive are the calls of the source. How the source made its calls: active means hit-call score of the fitted dose curve at least 0.9, where 1 is the maximum; inactive means score below 0.9.
Select the correct class. Options are active, inactive and nothing else.

Worked set:
INSERT INTO results (compound, assigned_category) VALUES
  ('CCCCCCCCc1ccc(O)cc1', 'active'),
  ('COc1cc(-c2ccc(N)c(OC)c2)ccc1N', 'inactive'),
  ('CC12CC1(C)C(=O)N(c1cc(Cl)cc(Cl)c1)C2=O (configuration not stated)', 'inactive'),
  ('O=C(Nc1ccc2[nH]ccc2c1)c1cc2cc(F)ccc2n1Cc1cccc(F)c1', 'active'),
  ('CC(=O)OC(c1ccccc1)C(Cl)(Cl)Cl (configuration not stated)', 'inactive');

input: Answer briefly: the call reported for Nc1cccc2ccccc12 in this assay.
output: inactive

input: Answer briefly: the call reported for CC(C)CCCCCCOC(=O)c1ccccc1C(=O)OCCCCCCC(C)C in this assay.
output: inactive

input: Answer briefly: the call reported for Nc1ccc(-c2ccc(N)c(Cl)c2)cc1Cl in this assay.
output: inactive

Provenance of the data: PubChem BioAssay (EPA / NIEHS)
